Hello, the source for this data is ChEMBL document CHEMBL1132975, in case you need it.

molecular target: Human immunodeficiency virus type 1 protease (Human immunodeficiency virus 1); experiment: In vitro inhibition of HIV-1.
pIC50: −log10 of the molar value.
Entry flag: t if pIC50 reaches 6; f if it does not.

INSERT INTO measurements (compound, class_label) VALUES
  ('CC(C)(C)NC(=O)[C@@H]1C[C@H](OCc2ccncc2)CCN1C[C@@H](O)[C@H](Cc1ccccc1)NC(=O)O[C@@H]1CCOC1', 't'),
  ('CC(C)(C)NC(=O)[C@@H]1C[C@H](OCc2ccncc2)CCN1C[C@@H](O)[C@H](Cc1ccccc1)NC(=O)CSc1ccccc1', 'f'),
  ('Cc1cccc(C)c1OCC(=O)N[C@@H](Cc1ccccc1)[C@H](O)CN1C[C@H]2CCCC[C@H]2C[C@H]1C(=O)NC(C)(C)C', 't'),
  ('Cc1cccc(C)c1CCC(=O)N[C@@H](Cc1ccccc1)[C@H](O)CN1CC[C@@H](OCc2ccncc2)C[C@H]1C(=O)NC(C)(C)C', 'f'),
  ('Cc1ccccc1CCC(=O)N[C@@H](Cc1ccccc1)[C@H](O)CN1CC[C@@H](OCc2ccncc2)C[C@H]1C(=O)NC(C)(C)C', 'f'),
  ('Cc1cccc(C)c1OCC(=O)N[C@@H](Cc1ccccc1)[C@H](O)CN1CC[C@@H](OCc2ccncc2)C[C@H]1C(=O)NC(C)(C)C', 't'),
  ('Cc1cccc(C)c1COC(=O)N[C@@H](Cc1ccccc1)[C@H](O)CN1CC[C@@H](OCc2ccncc2)C[C@H]1C(=O)NC(C)(C)C', 't'),
  ('Cc1cccc(C)c1OCC(=O)N[C@@H](Cc1ccccc1)[C@H](O)CN1CC[C@@H](SCc2cccnc2)C[C@H]1C(=O)NC(C)(C)C', 't'),
  ('Cc1c(O)cccc1C(=O)N[C@@H](Cc1ccccc1)[C@H](O)CN1CC[C@@H](OCc2ccncc2)C[C@H]1C(=O)NC(C)(C)C', 't'),
  ('Cc1ccccc1COC(=O)N[C@@H](Cc1ccccc1)[C@H](O)CN1CC[C@@H](OCc2ccncc2)C[C@H]1C(=O)NC(C)(C)C', 't'),
  ('CC(C)(C)NC(=O)[C@@H]1C[C@H](OCc2ccncc2)CCN1C[C@@H](O)[C@H](Cc1ccccc1)NC(=O)/C=C/c1ccccc1', 'f'),
  ('Cc1cccc(C)c1OC(C)C(=O)N[C@@H](Cc1ccccc1)[C@H](O)CN1CC[C@@H](OCc2ccncc2)C[C@H]1C(=O)NC(C)(C)C (stereo partly specified)', 't'),
  ('CC(C)(C)NC(=O)[C@@H]1C[C@H](OCc2ccncc2)CCN1C[C@@H](O)[C@H](Cc1ccccc1)NC(=O)OCc1ccccc1', 't'),
  ('Cc1cccc(C)c1OCC(=O)N[C@@H](Cc1ccccc1)[C@H](O)CN1CC[C@@H](SCc2ccncc2)C[C@H]1C(=O)NC(C)(C)C', 't');

###

target: Human immunodeficiency virus type 1 protease (Human immunodeficiency virus 1); test: The inhibitory concentration was evaluated for viral strains HIV-2 ROD using a HIV protease HPLC based assay.
measurement.name: IC50 (nM)

INSERT INTO results (query_smiles, measurement_name, numeric_value) VALUES
  ('CC(C)[C@H](NC(=O)c1ccc2ccccc2n1)C(=O)N[C@@H](Cc1ccccc1)[C@H](O)CN1CC[C@@H](OCc2ccncc2)C[C@H]1C(=O)NC(C)(C)C', 'IC50', 10);
